experiment: Toxicokinetics after topical application on full-thickness wounds in minipigs; type: in vivo, Gottingen SPF minipigs; details: Gottingen SPF, minipig, plasma, topical or ocular, 2000 ug/day; Male minipigs, topical 2000 μg/day (500 μg/g Gel), Day 6; read-out: Cmax (Mean ± CV)
parameterMeasured: Cmax (ng/mL)
Answer with a number only, understood to be in ng/mL.

## Input Given Nc1nc(OCCc2ccc(Cl)cc2)nc2c1ncn2[C@@H]1O[C@H](CO)[C@@H](O)[C@H]1O [2-[2-(4-chlorophenyl)ethoxy]adenosine] , state its recorded Cmax.
## Output 0.46

###

test: Toxicokinetics after topical application on full-thickness wounds in minipigs; type: in vivo, Gottingen SPF minipigs; conditions: Gottingen SPF, minipig, plasma, topical or ocular, 2000 ug/day; Female minipigs, topical 2000 μg/day (500 μg/g Gel), Day 6; read-out: AUC24 h (Mean ± CV)
parameterMeasured: AUC(0-t) (ng·h/mL)
Answer with a number only, understood to be in ng·h/mL.

## Input Given Nc1nc(OCCc2ccc(Cl)cc2)nc2c1ncn2[C@@H]1O[C@H](CO)[C@@H](O)[C@H]1O [2-[2-(4-chlorophenyl)ethoxy]adenosine] , state its recorded AUC(0-t).
## Output 6.65
